Provenance of the data: ChEMBL document CHEMBL3616402

Experiment: Drug level in glucagon-induced glucose excursion in glucagon receptor humanized mouse model of acute glucagon challenge model at 10 mg/kg, po dosed 1 hr before glucagon challenge and measured after 60 mins post dose
Format: ADME, organism-based
Conditions: in vivo, read-out: Drug uptake

- compound: "COc1ccc(C(F)(F)F)cc1-c1nn(C(C)c2ccc(C(=O)NCCC(=O)O)cc2)c2cc(-c3ccc(C)cc3)ccc12 (stereo unspecified)"
  concentration at 1 h (µM): 2.54

----------
Molecular target: Glucagon receptor (Homo sapiens, UniProt P47871)
Sequence (P47871 whole entry): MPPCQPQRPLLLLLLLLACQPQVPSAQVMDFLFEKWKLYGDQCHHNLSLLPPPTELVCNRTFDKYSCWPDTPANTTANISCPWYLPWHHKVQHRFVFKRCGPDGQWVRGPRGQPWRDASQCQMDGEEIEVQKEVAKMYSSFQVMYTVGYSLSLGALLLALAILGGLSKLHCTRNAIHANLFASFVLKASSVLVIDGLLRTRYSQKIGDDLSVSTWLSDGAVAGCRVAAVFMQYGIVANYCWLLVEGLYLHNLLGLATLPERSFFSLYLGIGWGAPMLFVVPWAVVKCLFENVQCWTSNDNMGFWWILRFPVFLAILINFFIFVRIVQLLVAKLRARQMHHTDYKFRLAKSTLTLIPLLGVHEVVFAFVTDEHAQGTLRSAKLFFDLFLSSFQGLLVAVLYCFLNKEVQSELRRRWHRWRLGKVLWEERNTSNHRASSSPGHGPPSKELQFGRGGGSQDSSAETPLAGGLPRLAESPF
Test: Antagonist activity against human glucagon receptor expressed in CHO cells assessed as reduction in glucagon-induced cAMP production
Format: functional, cell-based
// values below are reported IC50

- molecule: "COc1ccc(C(F)(F)F)cc1-c1nn(C(c2ccc(C(=O)NCCC(=O)O)cc2)C(C)C)c2cc(-c3ccc(C)cc3)ccc12 (centres undefined)"
  IC50: "0.069 µM"
- molecule: "CCCC(c1ccc(C(=O)NCCC(=O)O)cc1)n1nc(-c2cc(C(F)(F)F)ccc2OC)c2cc(-c3ccc(C)cc3)ccc21 (centres undefined)"
  IC50: "0.017 µM"
- molecule: "CCCCC(c1ccc(C(=O)NCCC(=O)O)cc1)n1nc(-c2cc(C(F)(F)F)ccc2OC)c2ccc(-c3ccc(OC)nc3)cc21 (centres undefined)"
  IC50: "0.024 µM"
- molecule: "CC(c1ccc(C(=O)NCCC(=O)O)cc1)n1nc(-c2cc(Cl)cc(C(F)(F)F)c2)c2ccc(-c3ccc(OC(F)(F)F)cc3)cc21 (centres undefined)"
  IC50: "0.056 µM"

----------
Target: Gastric inhibitory polypeptide receptor (Homo sapiens, UniProt P48546)
Sequence (P48546 whole entry): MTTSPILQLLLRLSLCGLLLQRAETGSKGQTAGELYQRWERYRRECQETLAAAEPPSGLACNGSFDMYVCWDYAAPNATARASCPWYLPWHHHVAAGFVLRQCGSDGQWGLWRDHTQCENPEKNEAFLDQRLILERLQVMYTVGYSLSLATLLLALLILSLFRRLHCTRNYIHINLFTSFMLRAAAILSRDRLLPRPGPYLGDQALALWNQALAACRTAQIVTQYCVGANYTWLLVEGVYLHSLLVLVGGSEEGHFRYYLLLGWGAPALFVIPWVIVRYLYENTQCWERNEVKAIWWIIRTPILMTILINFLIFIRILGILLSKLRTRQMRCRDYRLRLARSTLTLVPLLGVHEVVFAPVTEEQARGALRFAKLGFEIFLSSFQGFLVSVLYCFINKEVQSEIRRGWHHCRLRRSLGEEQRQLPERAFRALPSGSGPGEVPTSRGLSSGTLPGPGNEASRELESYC
Assay: Antagonist activity against human glucose dependent insulinotropic peptide receptor by cAMP accumulation assay
// values below are reported IC50
observed-property: IC50 (µM)

- compound: "CCCCC(c1ccc(C(=O)NCCC(=O)O)cc1)n1nc(-c2cc(C(F)(F)F)ccc2OC)c2ccc(-c3ccc(OC)cc3)cc21 (stereo not given)"
  observed-value: 1.1
- compound: "CCCCC(c1ccc(C(=O)NCCC(=O)O)cc1)n1nc(-c2cc(C(F)(F)F)ccc2OC)c2ccc(-c3ccc(C)cc3)cc21 (stereo not given)"
  observed-value: 1
- compound: "CCCCC(c1ccc(C(=O)NCCC(=O)O)cc1)n1nc(-c2cc(C(F)(F)F)ccc2OC)c2ccc(-c3ccc(OC(F)(F)F)cc3)cc21 (stereo not given)"
  observed-value: 0.75
- compound: "COc1ccc(C(F)(F)F)cc1-c1nn(C(C)c2ccc(C(=O)NCCC(=O)O)cc2)c2cc(-c3ccc(C)cc3)ccc12 (stereo not given)"
  observed-value: 1.3
- compound: "CCCC(c1ccc(C(=O)NCCC(=O)O)cc1)n1nc(-c2cc(C(F)(F)F)ccc2OC)c2ccc(-c3ccc(OC(F)(F)F)cc3)cc21 (stereo not given)"
  observed-value: 1.4

----------
Test: Half life in Wistar rat at 0.5 mg/kg, iv or 2 mg/kg, po
Format: ADME, organism-based
Settings: in vivo
Class condition met: half-life at least 6 h. Class condition not met: half-life below 6 h.

- molecule: "COc1ccc(C(F)(F)F)cc1-c1nn(C(C)c2ccc(C(=O)NCCC(=O)O)cc2)c2cc(-c3ccc(C)cc3)ccc12 (stereo not given)"
  group: "condition not met"
- molecule: "CCCCC(c1ccc(C(=O)NCCC(=O)O)cc1)n1nc(-c2cc(C(F)(F)F)ccc2OC)c2ccc(-c3ccc(OC)cc3)cc21 (stereo not given)"
  group: "condition met"
- molecule: "CCCCC(c1ccc(C(=O)NCCC(=O)O)cc1)n1nc(-c2cc(C(F)(F)F)ccc2OC)c2ccc(-c3ccc(OC(F)(F)F)cc3)cc21 (stereo not given)"
  group: "condition not met"
- molecule: "CCCCC(c1ccc(C(=O)NCCC(=O)O)cc1)n1nc(-c2cc(C(F)(F)F)ccc2OC)c2ccc(-c3ccc(C)cc3)cc21 (stereo not given)"
  group: "condition not met"
- molecule: "CCCC(c1ccc(C(=O)NCCC(=O)O)cc1)n1nc(-c2cc(C(F)(F)F)ccc2OC)c2ccc(-c3ccc(OC(F)(F)F)cc3)cc21 (stereo not given)"
  group: "condition met"

----------
Biological target: UniProtKB P47871
Test: Displacement of [125I]glucagon from human glucagon receptor expressed in CHO cell membranes
// values below are reported IC50

- compound: "CCCCC(c1ccc(C(=O)NCCC(=O)O)cc1)n1nc(-c2cc(C(F)(F)F)ccc2OC)c2ccc(-c3cc(F)c(F)c(F)c3)cc21 (configuration not stated)"
  target-or-system: "UniProtKB P47871"
  IC50 / nM: 3.5
- compound: "COc1ccncc1-c1nn(C(C)c2ccc(C(=O)NCCC(=O)O)cc2)c2cc(-c3ccc(OC(F)(F)F)cc3)ccc12 (configuration not stated)"
  target-or-system: "UniProtKB P47871"
  IC50 / nM: 110
- compound: "CCCC(c1ccc(C(=O)NCCC(=O)O)cc1)n1nc(-c2cc(C(F)(F)F)ccc2OC)c2ccc(-c3ccc(OC(F)(F)F)cc3)cc21 (configuration not stated)"
  target-or-system: "UniProtKB P47871"
  IC50 / nM: 1
- compound: "COc1cc(F)c(F)cc1-c1nn(C(C)c2ccc(C(=O)NCCC(=O)O)cc2)c2cc(-c3ccc(OC(F)(F)F)cc3)ccc12 (configuration not stated)"
  target-or-system: "UniProtKB P47871"
  IC50 / nM: 4
- compound: "CC(c1ccc(C(=O)NCCC(=O)O)cc1)n1nc(-c2cc(F)c(F)c(F)c2)c2ccc(-c3ccc(OC(F)(F)F)cc3)cc21 (configuration not stated)"
  target-or-system: "UniProtKB P47871"
  IC50 / nM: 6
- compound: "CCCC(c1ccc(C(=O)NCCC(=O)O)cc1)n1nc(-c2cc(C(F)(F)F)ccc2OC)c2cc(-c3ccc(C)cc3)ccc21 (configuration not stated)"
  target-or-system: "UniProtKB P47871"
  IC50 / nM: 7
- compound: "CCCCC(c1ccc(C(=O)NCCC(=O)O)cc1)n1nc(-c2cc(C(F)(F)F)ccc2OC)c2ccc(-c3cc(F)cc(Cl)c3)cc21 (configuration not stated)"
  target-or-system: "UniProtKB P47871"
  IC50 / nM: 7

----------
Biological target: Glucagon receptor (Homo sapiens, UniProt P47871)
Assay: Antagonist activity against human glucagon receptor expressed in CHO cells assessed as reduction in glucagon-induced cAMP production
Assay type: functional, cell-based
TRUE if IC50 is below 40 nM. FALSE if not; exact matches included in FALSE.

- compound: "COc1nccc(-c2nn(C(C)c3ccc(C(=O)NCCC(=O)O)cc3)c3cc(-c4ccc(OC(F)(F)F)cc4)ccc23)n1 (stereo unspecified)"
  group: "FALSE"
- compound: "COc1ccc(C(F)(F)F)cc1-c1nn(C(C)c2ccc(C(=O)NCCC(=O)O)cc2)c2cc(-c3ccc(C)cc3)ccc12 (stereo unspecified)"
  group: "TRUE"
- compound: "CCCC(c1ccc(C(=O)NCCC(=O)O)cc1)n1cc(-c2cc(C(F)(F)F)ccc2OC)c2ccc(-c3ccc(OC(F)(F)F)cc3)nc21 (stereo unspecified)"
  group: "FALSE"
- compound: "CC(c1ccc(C(=O)NCCC(=O)O)cc1)n1nc(-c2cc(F)ccc2Cl)c2ccc(-c3ccc(OC(F)(F)F)cc3)cc21 (stereo unspecified)"
  group: "FALSE"
- compound: "CCCC(c1ccc(C(=O)NCCC(=O)O)cc1)n1cc(-c2cc(C(F)(F)F)ccc2OC)c2ccc(-c3ccc(C)cc3)cc21 (racemic)"
  group: "FALSE"
- compound: "CCCC(c1ccc(C(=O)NCCC(=O)O)cc1)n1nc(-c2cc(C(F)(F)F)ccc2OC)c2cccc(-c3ccc(C)cc3)c21 (stereo unspecified)"
  group: "FALSE"
- compound: "CCCCC(c1ccc(C(=O)NCCC(=O)O)cc1)n1nc(-c2cc(C(F)(F)F)ccc2OC)c2ccc(-c3ccc(OC)cc3Cl)cc21 (stereo unspecified)"
  group: "TRUE"
- compound: "COc1cc(F)c(F)cc1-c1nn(C(C)c2ccc(C(=O)NCCC(=O)O)cc2)c2cc(-c3ccc(OC(F)(F)F)cc3)ccc12 (stereo unspecified)"
  group: "TRUE"
- compound: "CCC(c1ccc(C(=O)NCCC(=O)O)cc1)n1nc(-c2cc(C(F)(F)F)ccc2OC)c2ccc(-c3ccc(C)cc3)cc21 (stereo unspecified)"
  group: "TRUE"
- compound: "CCCCC(c1ccc(C(=O)NCCC(=O)O)cc1)n1nc(-c2cc(C(F)(F)F)ccc2OC)c2ccc(-c3ccc(OC)c(F)c3)cc21 (stereo unspecified)"
  group: "TRUE"
- compound: "CC(c1ccc(C(=O)NCCC(=O)O)cc1)n1nc(-c2cc(F)c(F)c(F)c2)c2ccc(-c3ccc(OC(F)(F)F)cc3)cc21 (stereo unspecified)"
  group: "TRUE"
